B1: STK38L (parent)
chain: FLPGGDMMTLLMKKDTLTEEETQF

Variants of: B1
experimental-details: protein stability index of a GFP-peptide fusion (GPS, HEK-293T) (PSI 1-6); higher = more stable;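 note: lentivirally expressed fusions sorted by FACS into six bins by GFP to DsRed ratio, PSI derived from sequencing read proportions per bin multiplied by bin number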
experimental-parameters: c terminus: a fixed tail appended
outcome-measure: protein stability index
Lab note: write the figure by itself, no unit.

Example entries and their recorded answers appear below.
D6L :: 2.71
L2H :: 1.91
F24C :: 1.77
L2K :: 4.24
P3V :: 2.08

Value of measured protein stability index for the entry L2N : 3.32

Value of measured protein stability index for the entry G5R : 3
